target: Disintegrin and metalloproteinase domain-containing protein 17 (Homo sapiens, UniProt P78536); assay: exosite inhibitors of ADAM17, dose response, biochemical (AID 743260)
Sequence (P78536 whole entry, the tested form may be a part): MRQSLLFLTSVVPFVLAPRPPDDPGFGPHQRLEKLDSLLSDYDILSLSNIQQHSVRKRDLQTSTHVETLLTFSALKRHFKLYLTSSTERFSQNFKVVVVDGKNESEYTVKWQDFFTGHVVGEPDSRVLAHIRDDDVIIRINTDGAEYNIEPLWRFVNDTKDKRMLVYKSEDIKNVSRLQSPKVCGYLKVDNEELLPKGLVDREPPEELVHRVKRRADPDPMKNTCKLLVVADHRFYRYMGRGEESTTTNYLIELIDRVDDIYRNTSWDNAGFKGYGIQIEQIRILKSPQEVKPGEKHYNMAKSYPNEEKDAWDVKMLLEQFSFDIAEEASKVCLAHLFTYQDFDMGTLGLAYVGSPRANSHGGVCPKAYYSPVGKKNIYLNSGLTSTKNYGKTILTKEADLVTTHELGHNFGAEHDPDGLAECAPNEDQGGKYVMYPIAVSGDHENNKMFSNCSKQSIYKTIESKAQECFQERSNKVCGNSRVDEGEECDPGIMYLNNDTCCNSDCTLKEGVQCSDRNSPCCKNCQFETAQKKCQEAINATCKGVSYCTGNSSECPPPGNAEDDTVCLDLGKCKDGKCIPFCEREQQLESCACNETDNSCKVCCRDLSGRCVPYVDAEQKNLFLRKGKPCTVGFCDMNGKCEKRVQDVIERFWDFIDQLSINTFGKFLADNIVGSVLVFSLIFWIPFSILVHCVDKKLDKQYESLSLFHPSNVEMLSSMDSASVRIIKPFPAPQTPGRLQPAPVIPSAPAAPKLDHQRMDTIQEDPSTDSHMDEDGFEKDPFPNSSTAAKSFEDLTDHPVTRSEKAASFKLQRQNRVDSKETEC
Calls of active or inactive are those of the source.
readout.kind: IC50

Prompt: Please report the measured IC50 for Cc1cccc(N2CCN(C(=O)c3ccc(C[S+]([O-])Cc4ccc(Cl)cc4)o3)CC2)c1C (centres undefined)
Completion: > 69.5 µM (inactive)

Prompt: Please report the measured IC50 for `CCOc1ccc(N/N=C2/C(=O)Nn3c2nc(C)cc3=O)cc1`
Completion: > 69.5 µM (inactive)

Prompt: Please report the measured IC50 for `O=C(CSc1nnc(COc2ccccc2)n1-c1ccc(Cl)cc1)Nc1ccccc1-c1ccccc1`
Completion: > 69.5 µM (inactive)

Prompt: Please report the measured IC50 for `CN(C)S(=O)(=O)c1cccc(NC(=O)COC(=O)c2cccc(S(=O)(=O)N3CCc4ccccc4C3)c2)c1`
Completion: > 69.5 µM (inactive)

====

Target: UniProtKB Q8IL11
Sequence (Q8IL11 whole entry): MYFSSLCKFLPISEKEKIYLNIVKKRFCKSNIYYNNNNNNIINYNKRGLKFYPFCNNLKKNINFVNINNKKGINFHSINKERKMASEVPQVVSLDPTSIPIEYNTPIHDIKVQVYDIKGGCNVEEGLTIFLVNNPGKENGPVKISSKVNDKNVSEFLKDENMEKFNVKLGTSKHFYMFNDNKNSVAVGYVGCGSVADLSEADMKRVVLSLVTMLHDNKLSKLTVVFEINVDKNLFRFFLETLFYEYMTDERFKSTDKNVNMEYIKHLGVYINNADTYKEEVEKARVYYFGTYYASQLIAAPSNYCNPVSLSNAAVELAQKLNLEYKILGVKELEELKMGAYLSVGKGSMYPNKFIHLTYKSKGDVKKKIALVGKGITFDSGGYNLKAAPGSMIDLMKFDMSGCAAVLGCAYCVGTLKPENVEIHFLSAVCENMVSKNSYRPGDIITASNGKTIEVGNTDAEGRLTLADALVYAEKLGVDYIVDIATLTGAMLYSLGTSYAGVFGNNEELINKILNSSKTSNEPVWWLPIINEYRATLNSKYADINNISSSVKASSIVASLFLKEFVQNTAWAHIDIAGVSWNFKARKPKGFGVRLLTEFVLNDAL
Test: P. falciparum M17LAP inhibitors, primary screen, biochemical, fluorogenic H-Leu-NHMec substrate, 1536-well (AID 1619)
Assay type: functional
Active and inactive are the calls of the source.
Provide the recorded IC50 for the entries that follow.

Prompt: Please report the measured IC50 for `O=C(CN1C(=O)c2ccccc2S1(=O)=O)NCCSC1CCCCC1`
Completion: 9.32 µM (active)

Prompt: Please report the measured IC50 for CC1(C(=O)O)CCC(C(=O)Nc2ccc3ccccc3c2)C1(C)C (stereo unspecified)
Completion: 12.5 µM (active)

Prompt: Please report the measured IC50 for NC(=O)c1c(NC(=O)C2CCCO2)sc2c1CCCCC2 (stereo unspecified)
Completion: 58.7 µM (active)

Prompt: Please report the measured IC50 for CCOC(=O)CSC(C)C(=O)Nc1nnc(C(C)C)s1 (stereo unspecified)
Completion: 37.7 µM (active)

Prompt: Please report the measured IC50 for `CCN(CC)CC(=O)c1ccc(-c2ccccc2)cc1`
Completion: 60.2 µM (active)

Prompt: Please report the measured IC50 for `COC(=O)c1cccc(NC(=O)Cn2cnc3ccccc3c2=O)c1`
Completion: 43.5 µM (active)

====

Provide the recorded AC50 for the entries that follow.
assay: Luminescence Cell-Based Dose Retest to Confirm Inhibitors of Cancer Stem Cells. [Related pubchem assays (depositor defined):AID2717, AID2721]; assay type: functional; settings: Homo sapiens
Activity calls are given as the source filed them.

Prompt: Please report the measured AC50 for `O=C(Nc1ccccc1)Nc1cc(Cl)cc(Cl)c1`
Completion: 4.3 µM (active)

Prompt: Please report the measured AC50 for `COc1ccc(CCNC(=O)c2coc(=O)c(Br)c2)cc1`
Completion: 7.39 µM (active)

Prompt: Please report the measured AC50 for `CCCCc1ccc(/C(C)=N/Nc2cc(N3CCOCC3)nc(C)n2)cc1`
Completion: 3.08 µM (active)

Prompt: Please report the measured AC50 for `CC(C)CN1C(=O)/C(=C/c2c[nH]nc2-c2ccccc2)SC1=S`
Completion: 2.59 µM (active)

Prompt: Please report the measured AC50 for `Cc1cc(N2CCN(C)CC2)nc2ccc(NC(S)=NCCC(C)C)cc12`
Completion: 1.24 µM (active)

Prompt: Please report the measured AC50 for CC1=C(C(=O)OC2CCCC2)C(c2coc3ccccc3c2=O)C2=C(O)CC(C)(C)CC2=N1 (configuration not stated)
Completion: 97.3 µM (active)

Prompt: Please report the measured AC50 for `O=C(NCc1ccc(F)cc1)C(=O)Nc1nc(C23CC4CC(CC(C4)C2)C3)cs1`
Completion: 1.91 µM (active)

====

target: Heat shock factor protein 1 (Mus musculus); experiment: HSF1 potentiators in luciferase reporter cells, confirmation, cell-based, NIH3T3, luminescence, dose retest (AID 435004); type: functional;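 note: stress induced by proteasome inhibitor MG132 added 30 min after compound; luciferase reporter driven by HSF1 response element in NIH3T3 cells; actives raise luminescence as potentiators of the MG132 stress response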
Sequence (P38532 whole entry): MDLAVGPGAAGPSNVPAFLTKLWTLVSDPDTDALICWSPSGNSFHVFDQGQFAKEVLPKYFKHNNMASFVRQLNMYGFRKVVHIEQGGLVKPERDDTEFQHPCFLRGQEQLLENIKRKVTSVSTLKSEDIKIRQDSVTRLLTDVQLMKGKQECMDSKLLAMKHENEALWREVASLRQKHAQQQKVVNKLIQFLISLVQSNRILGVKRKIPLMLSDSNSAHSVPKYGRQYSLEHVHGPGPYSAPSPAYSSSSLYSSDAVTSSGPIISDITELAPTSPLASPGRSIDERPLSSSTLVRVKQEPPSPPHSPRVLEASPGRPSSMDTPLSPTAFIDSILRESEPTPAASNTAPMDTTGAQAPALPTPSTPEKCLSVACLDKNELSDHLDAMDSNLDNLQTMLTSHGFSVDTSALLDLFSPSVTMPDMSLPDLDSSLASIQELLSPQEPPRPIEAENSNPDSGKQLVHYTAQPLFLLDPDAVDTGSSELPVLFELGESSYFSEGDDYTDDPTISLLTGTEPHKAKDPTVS
Activity calls are given as the source filed them.
I would appreciate it if you answered using one of these outcomes: active, inactive

Prompt: Field: outcome | Entry: O=C(CSC1CS(=O)(=O)c2cc([N+](=O)[O-])ccc21)NNC(=O)c1ccc(Cl)cc1 (stereo unspecified)
Completion: inactive

Prompt: Field: outcome | Entry: `O=C(CSc1nnc(-c2c[nH]c3ccccc23)n1-c1ccc(F)cc1)NCc1ccco1`
Completion: active

Prompt: Field: outcome | Entry: `NC(=O)c1cc2cc(Br)ccc2o/c1=N\Cc1ccccc1`
Completion: inactive

Prompt: Field: outcome | Entry: CCCN(CCC)C(S)=NC1CC2C=CC1C2 (stereo unspecified)
Completion: inactive

Prompt: Field: outcome | Entry: `CC#CC[N+](C)(C)CCCCCCCCCCCC`
Completion: inactive

Prompt: Field: outcome | Entry: O=C(O)c1ccccc1OC(C(=O)Nc1cc(Cl)cc(Cl)c1)c1ccccc1 (stereo unspecified)
Completion: inactive

====

target: Streptokinase A (Streptococcus pyogenes serotype M1, UniProt P10520); experiment: S. pyogenes streptokinase expression inhibitors, potency, dose response, plasminogen activation absorbance, OD405 (AID 1914); type: functional, Streptococcus pyogenes M1 GAS;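 note: secreted streptokinase activity via plasminogen activation per viability signal from cell pellet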
Sequence (P10520 whole entry): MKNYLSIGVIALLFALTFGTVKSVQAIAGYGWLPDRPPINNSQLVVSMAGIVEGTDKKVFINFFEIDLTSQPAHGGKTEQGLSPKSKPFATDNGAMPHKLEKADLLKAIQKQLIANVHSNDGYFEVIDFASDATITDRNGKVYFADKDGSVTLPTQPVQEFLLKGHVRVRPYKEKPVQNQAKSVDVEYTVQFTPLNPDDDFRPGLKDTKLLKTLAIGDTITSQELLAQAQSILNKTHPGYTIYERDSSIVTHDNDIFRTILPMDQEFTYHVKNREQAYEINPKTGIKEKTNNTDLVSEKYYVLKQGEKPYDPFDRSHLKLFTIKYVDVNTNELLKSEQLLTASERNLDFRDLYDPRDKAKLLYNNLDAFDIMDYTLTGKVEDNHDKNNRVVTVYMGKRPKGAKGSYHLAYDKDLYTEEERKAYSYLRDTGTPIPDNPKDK
Activity calls are given as the source filed them.
readout.kind: EC50

Prompt: Please report the measured EC50 for `COC(=O)c1ccc(N2CCN(C)CC2)c(NC(=O)COc2ccc(C)cc2)c1`
Completion: > 150 µM (not active)

Prompt: Please report the measured EC50 for `CC(=O)Oc1ccc(-c2nc(-c3cccnc3)no2)cc1`
Completion: > 150 µM (not active)

Prompt: Please report the measured EC50 for `O=C(Nc1ccccc1-c1nc2ccccc2[nH]1)c1sc2ccccc2c1Cl`
Completion: > 150 µM (not active)

Prompt: Please report the measured EC50 for Cc1ccc(N2C(=O)C3CC(c4ccccc4)=C4C5C=CC(C6C(=O)N(c7ccc(C)cc7)C(=O)C56)C4C3C2=O)cc1 (configuration not stated)
Completion: > 150 µM (not active)

Prompt: Please report the measured EC50 for `Cc1cccc2sc(NNC(=O)c3cc(=O)c4ccccc4o3)nc12`
Completion: > 150 µM (not active)

Prompt: Please report the measured EC50 for `O=C(O)c1ccc2c3c(ncnc13)-c1ccccc1C2=O`
Completion: 16 µM (active)

Prompt: Please report the measured EC50 for `Cn1c(N)c(C(=O)COC(=O)/C=C/c2ccc(OC(F)F)cc2)c(=O)n(C)c1=O`
Completion: > 150 µM (not active)

Prompt: Please report the measured EC50 for `Oc1nc(Nc2ccc(F)cc2)sc1/C=C1\C=Nc2ccccc21`
Completion: > 150 µM (not active)

Prompt: Please report the measured EC50 for `O=C(Nc1ccccc1)Nc1cc(Cl)cc(Cl)c1`
Completion: 16.8 µM (active)

Prompt: Please report the measured EC50 for `C/C(=N/Nc1nc(-c2ccccc2F)nc2ccccc12)c1ccccc1O`
Completion: > 150 µM (not active)

Prompt: Please report the measured EC50 for `COc1cc(C(=O)NNC(=S)NC(=O)c2ccc(F)cc2)cc(OC)c1OC`
Completion: > 150 µM (not active)

Prompt: Please report the measured EC50 for `Cc1nn(Cc2ccc(C(=O)Nc3nc4c(C)cccc4s3)o2)c(C)c1Br`
Completion: 5.58 µM (active)

Prompt: Please report the measured EC50 for `O=c1c2ccccc2c(-c2ccccc2)nn1Cc1c(Cl)cccc1Cl`
Completion: 17 µM (active)

Prompt: Please report the measured EC50 for Cc1cccc(C)c1OCC(O)Cn1c2ccccc2c2ccccc21 (configuration not stated)
Completion: 3.98 µM (active)

Prompt: Please report the measured EC50 for `O=[N+]([O-])c1ccc(O)c(Nc2ncnc3ccc(Br)cc23)c1`
Completion: > 150 µM (not active)

Prompt: Please report the measured EC50 for `CCc1ccc(/C=N/n2c(S)nnc2C2CCCCC2)cc1`
Completion: > 150 µM (not active)

Prompt: Please report the measured EC50 for `Cc1ccc(C(C)C)c(OCc2ccc(C(=O)N/N=C/c3cccc(O)c3O)cc2)c1`
Completion: > 150 µM (not active)

Just for reference, ChEMBL document CHEMBL1201862 is where these values come from.
